- protocol conditions: a range is the spread between reports

{"smiles code": "Cc1c(N)c(=O)n(-c2ccccc2)n1C", "melting point": "107 to 109 °C"}
{"smiles code": "c1ccc(CSc2ccccc2)cc1", "melting point": "41 to 43.5 °C"}
{"smiles code": "C=CCCCCCCCCCCCC", "melting point": "-13 to -12 °C"}
{"smiles code": "O=C(O)c1cc(Cl)cc(Cl)c1O", "melting point": "220 to 224 °C"}
{"smiles code": "O=C(CBr)c1ccc(Br)cc1", "melting point": "109 to 111 °C"}
{"smiles code": "NCCN", "melting point": "8.5 to 11.1 °C"}
{"smiles code": "O=C(O)c1ccc(O)cc1O", "melting point": "225 to 226 °C"}
{"smiles code": "CCSC", "melting point": "-106 °C"}
{"smiles code": "O=Cc1ccc(C=O)cc1", "melting point": "115 to 117 °C"}
{"smiles code": "c1cc(-c2ccncc2)ccn1", "melting point": "111 to 113 °C"}
{"smiles code": "CCCCCI", "melting point": "-86 to -85.6 °C"}
{"smiles code": "O=C1CCC(=O)O1", "melting point": "119 to 120 °C"}
{"smiles code": "Cc1ccc(P(c2ccc(C)cc2)c2ccc(C)cc2)cc1", "melting point": "145 to 149 °C"}
{"smiles code": "O=C(Cl)c1ccc(F)cc1", "melting point": "9 to 10 °C"}
{"smiles code": "CCCCCCC=O", "melting point": "-43.3 to -43 °C"}
{"smiles code": "OCc1ccc(Cl)cc1Cl", "melting point": "59 to 59.5 °C"}
{"smiles code": "CN(C)c1cccc2c(S(N)(=O)=O)cccc12", "melting point": "220 °C"}
{"smiles code": "CC(C)(C)C", "melting point": "-17 to -16.4 °C"}
{"smiles code": "Cc1cc(C)cc(O)c1", "melting point": "62.5 to 65.5 °C"}
{"smiles code": "Nc1ccc([N+](=O)[O-])cc1", "melting point": "146 to 150 °C"}
{"smiles code": "Nc1ccc2[nH]ncc2c1", "melting point": "175 to 176 °C"}
{"smiles code": "Nc1cccc2cccnc12", "melting point": "65 to 70 °C"}
{"smiles code": "Cc1cc(C)cc(N)c1", "melting point": "9.8 to 10 °C"}
{"smiles code": "CCCCCCCCCCCCCCCCCCCCCCCCCCCCCCCCCCCCCCCC", "melting point": "81 to 82 °C"}
{"smiles code": "Cc1ccc(C)c(C)c1C", "melting point": "-6.2 to -6 °C"}
{"smiles code": "c1ccc2c(c1)CCCC2", "melting point": "-36 to -31 °C"}
{"smiles code": "O=[N+]([O-])c1cccs1", "melting point": "44 to 46.5 °C"}
{"smiles code": "CCC(=O)c1cc(F)c(O)c(F)c1", "melting point": "127 to 130 °C"}
{"smiles code": "O=C(O)COCC(=O)O", "melting point": "143 to 148 °C"}
{"smiles code": "CC(C)C(C)(C)C(C)C", "melting point": "-102 °C"}
